- Test system: BDF1 mice, B16 melanoma ip, median survival T/C
- method.summary: NCI In Vivo Anticancer Drug Screen. Data for tumor model B16 Melanoma (intraperitoneal) in B6D2F1 (BDF1) mice
- test.context: endpoint: median survival time; dose: 5.0 mg/kg/injection; schedule: Q01DX009 (ip); vehicle: saline
Toxic doses and inconclusive results are not listed. Rule for the calls: active = survival T/C of 150% or more; inactive = T/C below 125% in these data.
Possible outcomes: active, inactive

# smiles.str, category
data = [
    ("ClC[P+](c1ccccc1)(c1ccccc1)c1ccccc1", "inactive"),
    ("Cn1c(CCCC(=O)O)nc2cc(N(CCCl)CCCl)ccc21", "active"),
    ("NC(N)=Nc1cc2ccccc2c2ccccc12", "inactive"),
    ("c1ccc(OCCC[P+](c2ccccc2)(c2ccccc2)c2ccccc2)cc1", "inactive"),
    ("NC(=NCc1ccccc1)c1ccc(N=C(N)c2ccc(C(N)=Nc3ccc(C(N)=NCc4ccccc4)cc3)cc2)cc1", "inactive"),
]
